Values compiled from paper PMC4498724.

Items are presented alongside their recorded IC50.
# TESTED SYSTEM: human CK2 holoenzyme (Homo sapiens)
# Sequence (P68400 whole entry): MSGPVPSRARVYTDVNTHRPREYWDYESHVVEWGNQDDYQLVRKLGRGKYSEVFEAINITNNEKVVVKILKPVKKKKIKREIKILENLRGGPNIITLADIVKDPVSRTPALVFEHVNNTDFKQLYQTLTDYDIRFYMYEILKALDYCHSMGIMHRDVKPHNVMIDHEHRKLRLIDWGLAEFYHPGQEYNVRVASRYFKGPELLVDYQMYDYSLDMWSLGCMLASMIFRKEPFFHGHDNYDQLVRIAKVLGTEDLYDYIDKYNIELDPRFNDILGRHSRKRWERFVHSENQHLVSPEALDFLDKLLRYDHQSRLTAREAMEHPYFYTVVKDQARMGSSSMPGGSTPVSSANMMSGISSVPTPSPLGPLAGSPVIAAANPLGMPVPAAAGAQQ
# Sequence (P67870 whole entry partner): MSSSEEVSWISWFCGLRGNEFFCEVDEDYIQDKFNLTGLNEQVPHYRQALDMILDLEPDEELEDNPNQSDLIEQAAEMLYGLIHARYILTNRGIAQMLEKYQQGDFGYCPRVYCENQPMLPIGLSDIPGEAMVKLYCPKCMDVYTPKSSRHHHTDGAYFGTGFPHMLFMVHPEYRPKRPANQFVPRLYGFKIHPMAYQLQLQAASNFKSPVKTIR
# PROTOCOL SUMMARY: biochemical
Hi! Could you send only the number? It should be in µM, unit omitted.

STRUCTURE STRING: O=c1ccc(=O)c2c1c1c(=O)c3ccccc3c1n2CCCc1ccccc1
REPORTED: 6.4

IC50 reading for "O=C1c2ccccc2-c2c1c1c(O)cccc1n2CCc1ccccc1" : 7.5

###

# TESTED SYSTEM: ABCG2 (Homo sapiens)
# Sequence (Q9UNQ0 whole entry): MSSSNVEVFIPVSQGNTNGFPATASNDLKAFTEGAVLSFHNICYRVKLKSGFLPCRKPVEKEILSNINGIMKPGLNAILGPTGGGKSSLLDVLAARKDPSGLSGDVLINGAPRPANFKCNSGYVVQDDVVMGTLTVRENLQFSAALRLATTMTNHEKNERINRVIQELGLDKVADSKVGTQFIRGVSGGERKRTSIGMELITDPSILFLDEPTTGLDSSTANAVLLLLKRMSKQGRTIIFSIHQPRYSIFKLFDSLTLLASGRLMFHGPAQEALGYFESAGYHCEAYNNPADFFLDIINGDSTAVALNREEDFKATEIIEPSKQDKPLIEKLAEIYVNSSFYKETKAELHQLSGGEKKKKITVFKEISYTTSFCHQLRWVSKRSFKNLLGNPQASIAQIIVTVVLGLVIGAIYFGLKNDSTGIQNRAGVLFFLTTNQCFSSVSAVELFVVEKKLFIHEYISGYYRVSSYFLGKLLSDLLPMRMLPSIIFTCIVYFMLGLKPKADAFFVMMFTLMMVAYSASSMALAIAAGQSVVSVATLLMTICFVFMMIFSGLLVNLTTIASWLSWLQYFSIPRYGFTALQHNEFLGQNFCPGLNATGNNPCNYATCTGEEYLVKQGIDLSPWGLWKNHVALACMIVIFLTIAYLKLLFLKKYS
# PROTOCOL SUMMARY: Inhibition of ABCG2-mediated mitoxantrone efflux in ABCG2-transfected cells
Each item that follows carries a reported IC50.

Worked cases, answers included:
STRUCTURE STRING: O=c1ccc(=O)c2c1c1c(=O)c3ccccc3c1n2CCCc1ccccc1
IC50: ~15 µM

STRUCTURE STRING: O=c1ccc(=O)c2c1c1c(=O)c3ccccc3c1n2CCc1ccccc1
IC50: ~30 µM

Would you kindly look at the next entry?
Entry "O=c1cc(-c2ccccc2)c(=O)c2c1c1c(=O)c3ccccc3c1n2Cc1ccccc1" — recorded IC50 = ~13 µM
